Taken from patent US12551500B2.

system.name: T7 RNA polymerase (Escherichia phage T7)
Sequence (P00573 whole entry): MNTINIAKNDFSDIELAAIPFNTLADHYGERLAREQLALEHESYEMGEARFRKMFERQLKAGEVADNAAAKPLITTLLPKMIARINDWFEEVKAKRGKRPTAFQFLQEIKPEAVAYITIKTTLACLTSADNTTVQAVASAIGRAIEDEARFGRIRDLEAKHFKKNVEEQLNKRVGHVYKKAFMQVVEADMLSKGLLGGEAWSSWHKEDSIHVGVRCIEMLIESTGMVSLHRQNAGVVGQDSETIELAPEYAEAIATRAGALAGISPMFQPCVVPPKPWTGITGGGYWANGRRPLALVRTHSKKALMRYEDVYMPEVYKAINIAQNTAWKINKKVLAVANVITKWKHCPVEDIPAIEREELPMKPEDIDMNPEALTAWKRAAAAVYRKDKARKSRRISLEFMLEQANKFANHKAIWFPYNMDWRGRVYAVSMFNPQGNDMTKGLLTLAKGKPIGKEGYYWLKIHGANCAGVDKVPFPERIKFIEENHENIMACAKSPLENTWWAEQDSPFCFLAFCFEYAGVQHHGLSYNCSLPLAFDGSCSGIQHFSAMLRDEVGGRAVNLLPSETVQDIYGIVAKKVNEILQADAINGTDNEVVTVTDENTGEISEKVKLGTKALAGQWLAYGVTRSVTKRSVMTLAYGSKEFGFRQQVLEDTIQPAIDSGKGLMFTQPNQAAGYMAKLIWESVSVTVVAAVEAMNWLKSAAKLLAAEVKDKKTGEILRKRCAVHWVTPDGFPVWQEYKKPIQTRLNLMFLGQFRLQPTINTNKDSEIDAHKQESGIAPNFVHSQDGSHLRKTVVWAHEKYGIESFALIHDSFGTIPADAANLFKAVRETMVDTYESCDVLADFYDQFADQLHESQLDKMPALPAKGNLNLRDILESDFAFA
assay.explanation: In vitro transcription yield of mRNA with cap analog (co-transcriptional capping)
Assay type: biochemical
condition.parameters: in vitro transcription, 1 μg DNA template, 20 μL system, 37° C. 2 hours
Please provide measured Yield per unit template for the entries that follow.
Include the unit after the number when you answer.

Data request, read-out Yield per unit template, for COC1C(OP(=O)([O-])OC[C@H]2O[C@@H](n3cnc4c(=O)[nH]c(N)nc43)C(O)C2O)[C@@H](COP(=O)(O)OP(=O)(O)OP(=O)(O)OC[C@]23COC(C2O)[C@H]([n+]2cn(C)c4c(=O)[nH]c(N)nc42)O3)O[C@H]1n1cnc2c(N)ncnc21 (stereo partly drawn) [Compound 14, reference compound]
120.9 µg

Data request, read-out Yield per unit template, for COC1C(OP(=O)([O-])OC[C@H]2O[C@@H](n3cnc4c(=O)[nH]c(N)nc43)C(O)C2O)[C@@H](COP(=O)(O)OP(=O)(O)OP(=O)(O)OC[C@]23O[C@@H]([n+]4cn(C)c5c(=O)[nH]c(N)nc54)C(O[C@H]2CCS(C)(=O)=O)C3O)O[C@H]1n1cnc2c(N)ncnc21 (stereo partly drawn)
152.6 µg

Data request, read-out Yield per unit template, for COC1C(OP(=O)([O-])OC[C@H]2O[C@@H](n3cnc4c(=O)[nH]c(N)nc43)C(O)C2O)[C@@H](COP(=O)(O)OP(=O)(O)OP(=O)(O)OC[C@]23O[C@@H]([n+]4cn(C)c5c(=O)[nH]c(N)nc54)C(O[C@H]2CCS(=O)(=O)N(C)C)C3O)O[C@H]1n1cnc2c(N)ncnc21 (stereo partly drawn)
153.1 µg

----------
Please provide measured average radiation intensity, times that of m6A for the entries that follow.
Test system: BALB/C mice
assay.explanation: In vivo imaging of protein expressed by LNP-carrying Fluc-mRNA in mice
condition.parameters: at 6 hours, ratio to m6A
Report only the number, with the unit times understood.

Give average radiation intensity, times that of m6A (BALB/C mice) of the following compound: COC1C(OP(=O)([O-])OC[C@H]2O[C@@H](n3cnc4c(=O)[nH]c(N)nc43)C(O)C2O)[C@@H](COP(=O)(O)OP(=O)(O)OP(=O)(O)OC[C@]23O[C@@H]([n+]4cn(C)c5c(=O)[nH]c(N)nc54)C(O[C@H]2CCS(=O)(=O)N(C)C)C3O)O[C@H]1n1cnc2c(N)ncnc21 (stereo partly shown)
1.8

Give average radiation intensity, times that of m6A (BALB/C mice) of the following compound: COC1C(OP(=O)([O-])OC[C@H]2O[C@@H](n3cnc4c(=O)[nH]c(N)nc43)C(O)C2O)[C@@H](COP(=O)(O)OP(=O)(O)OP(=O)(O)OC[C@]23O[C@@H]([n+]4cn(C)c5c(=O)[nH]c(N)nc54)C(O[C@H]2CCS(C)(=O)=O)C3O)O[C@H]1n1cnc2c(N)ncnc21 (stereo partly shown)
1.8

Give average radiation intensity, times that of m6A (BALB/C mice) of the following compound: COC1C(OP(=O)([O-])OC[C@H]2O[C@@H](n3cnc4c(=O)[nH]c(N)nc43)C(O)C2O)[C@@H](COP(=O)(O)OP(=O)(O)OP(=O)(O)OC[C@]23O[C@@H]([n+]4cn(C)c5c(=O)[nH]c(N)nc54)C(O[C@H]2CC(F)F)C3O)O[C@H]1n1cnc2c(N)ncnc21 (stereo partly shown)
2.1

Give average radiation intensity, times that of m6A (BALB/C mice) of the following compound: COC1C(OP(=O)([O-])OC[C@H]2O[C@@H](n3cnc4c(=O)[nH]c(N)nc43)C(O)C2O)[C@@H](COP(=O)(O)OP(=O)(O)OP(=O)(O)OC[C@]23O[C@@H]([n+]4cn(C)c5c(=O)[nH]c(N)nc54)C(O[C@H]2CC(=O)N(C)C)C3O)O[C@H]1n1cnc2c(N)ncnc21 (stereo partly shown)
1.8
